- system tested: Cannabinoid receptor 2 (Homo sapiens)
- Sequence (P34972 whole entry): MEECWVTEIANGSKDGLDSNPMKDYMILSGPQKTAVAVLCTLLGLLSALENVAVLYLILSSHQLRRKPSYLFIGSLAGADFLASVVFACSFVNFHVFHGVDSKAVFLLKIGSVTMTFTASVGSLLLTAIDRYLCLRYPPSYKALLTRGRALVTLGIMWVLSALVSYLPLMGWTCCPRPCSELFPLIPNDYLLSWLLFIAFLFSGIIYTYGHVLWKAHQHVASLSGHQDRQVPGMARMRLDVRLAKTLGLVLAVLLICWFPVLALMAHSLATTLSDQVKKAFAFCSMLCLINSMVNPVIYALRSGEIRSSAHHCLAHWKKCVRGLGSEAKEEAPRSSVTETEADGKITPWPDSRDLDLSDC
- protocol: Agonist activity at human recombinant CB2 receptor expressed in Sf9 cells by GTP-europium binding assay relative to CP-55940
value kind: Emax (%)
Give your result in % as a bare value.

Worked cases, Emax given:
CCn1c2ccccc2c2cc(NC(=O)CCc3nc(C4CCOCC4)no3)ccc21 ... 94
O=C(CCc1nc(-c2ccc(F)cc2Cl)no1)Nc1cnc2ccc(Cl)cc2c1 ... 110
O=C(CCc1nc(-c2ccc(F)cc2Cl)no1)Nc1nnc(N2CCCCC2)s1 ... 98
CCn1c2ccccc2c2cc(NC(=O)CCc3nc(-c4ccccc4F)no3)ccc21 ... 100
CCn1c2ccccc2c2cc(NC(=O)CCc3nc(-c4ccncc4C#N)no3)ccc21 ... 110
CCn1c2ccccc2c2cc(NC(=O)CCc3nc(-c4ccccc4Cl)no3)ccc21 ... 100
Fc1ccc(-c2noc(CCCNc3nc4ccc(Cl)cc4s3)n2)c(Cl)c1 ... 100
CCn1c2ccccc2c2cc(NC(=O)CCc3cc(-c4ccccc4F)no3)ccc21 ... 64
CC(C)(C)c1ncc(NC(=O)CCc2nc(-c3ccc(F)cc3Cl)no2)cn1 ... 91
CCn1c2ccccc2c2cc(NC(=O)CCn3cc(-c4ccccc4F)nn3)ccc21 ... 15

# ---- query compound ----
Record for "Fc1ccc(-c2noc(CCCNc3cnc4ccc(OC(F)(F)F)cc4c3)n2)c(Cl)c1" under target or system Cannabinoid receptor 2 (Homo sapiens): Emax reported as 110
